Measured IC50, listed per entry.
Target: human PLC-β2 (Homo sapiens)
Sequence (Q00722 whole entry): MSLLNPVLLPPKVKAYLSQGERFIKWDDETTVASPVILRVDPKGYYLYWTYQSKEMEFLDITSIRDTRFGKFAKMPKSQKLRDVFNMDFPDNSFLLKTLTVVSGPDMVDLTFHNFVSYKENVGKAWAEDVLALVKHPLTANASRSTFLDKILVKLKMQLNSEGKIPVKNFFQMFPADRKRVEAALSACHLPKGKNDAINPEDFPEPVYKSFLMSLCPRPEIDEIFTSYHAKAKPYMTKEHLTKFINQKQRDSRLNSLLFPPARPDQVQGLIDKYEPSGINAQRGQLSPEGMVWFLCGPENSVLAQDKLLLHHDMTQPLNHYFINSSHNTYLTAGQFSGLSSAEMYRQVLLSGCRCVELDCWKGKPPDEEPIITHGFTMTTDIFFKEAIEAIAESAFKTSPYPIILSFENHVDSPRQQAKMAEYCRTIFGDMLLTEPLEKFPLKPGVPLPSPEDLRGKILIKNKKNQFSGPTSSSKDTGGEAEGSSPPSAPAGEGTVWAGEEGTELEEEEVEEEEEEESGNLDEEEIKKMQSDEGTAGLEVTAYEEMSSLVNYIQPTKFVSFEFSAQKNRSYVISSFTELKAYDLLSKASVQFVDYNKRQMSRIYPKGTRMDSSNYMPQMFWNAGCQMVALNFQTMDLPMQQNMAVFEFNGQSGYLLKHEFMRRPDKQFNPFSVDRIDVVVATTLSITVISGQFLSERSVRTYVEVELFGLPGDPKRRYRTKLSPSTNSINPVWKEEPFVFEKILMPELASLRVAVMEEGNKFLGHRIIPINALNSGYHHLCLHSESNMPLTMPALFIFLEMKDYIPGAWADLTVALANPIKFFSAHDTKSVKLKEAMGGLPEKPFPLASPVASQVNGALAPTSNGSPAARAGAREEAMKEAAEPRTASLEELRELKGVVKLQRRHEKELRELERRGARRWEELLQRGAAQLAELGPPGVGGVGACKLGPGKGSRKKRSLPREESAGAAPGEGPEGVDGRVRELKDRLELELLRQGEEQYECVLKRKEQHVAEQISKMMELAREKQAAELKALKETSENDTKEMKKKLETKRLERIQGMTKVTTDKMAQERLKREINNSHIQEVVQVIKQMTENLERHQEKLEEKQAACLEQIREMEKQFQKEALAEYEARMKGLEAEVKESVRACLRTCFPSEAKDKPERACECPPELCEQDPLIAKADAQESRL
Experiment: PLC assay using FlashPlates (immobilized [3H]PIP2 hydrolysis)
Conditions: 96-well Phospholipid FlashPlates coated with [3H]PIP2; purified recombinant human PLC-β2 or cytosolic human PLC-β2
From the text: The hydrolysis of phosphatidylinositol-4,5-bisphosphate (PIP2) by a specific phospholipase C-β2 (PLC-β2) produces two intracellular messengers, diacylglycerol (DAG) and inositol 1,4,5-trisphosphate ([…]), which mediate the activation of protein kinase C and intracellular Ca^2+ release. […] The automated PLC-β2 assay described herein provides a convenient method for quantitative measurement of phospholipase C activities in a high throughput fashion. […]
RECORDED ENDPOINT: IC50 (µM)

                                   compound                          tgt  measure_unit  reading
0  NC(=O)c1ccc(N2CCC(c3ccccc3)CC2)c(NC(=O)Nc2ccccc2)c1 [Cpd 2]  human PLC-β2 (Homo sapiens)            µM      7.1
1  NC(=O)c1ccc(N2CCC(c3ccccc3)CC2)c(NC(=O)Nc2ccc3c(c2)OCO3)c1 [Cpd 3]  human PLC-β2 (Homo sapiens)            µM       11
2  NC(=O)c1ccc(N2CCC(Cc3ccccc3)CC2)c(NC(=O)Nc2ccccc2)c1 [Cpd 1]  human PLC-β2 (Homo sapiens)            µM      3.4
